test: amyloid nucleation score (Sup35N fusion, yeast selection) (log enrichment); library NNK1; higher = more nucleation; inactive = no reads after selection;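 further: zero at mode of non-aggregating sequences after 7 days selection at 30°C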
VALUE TYPE: amyloid nucleation score
Give bare numbers.

Sample records with amyloid nucleation score:
{"MACROMOLECULE SEQUENCE": "VNPYMMLAQY", "amyloid nucleation score": 0.748}
{"MACROMOLECULE SEQUENCE": "VGPRGSGPWGGVCLCGCSKE", "amyloid nucleation score": 1.11}
{"MACROMOLECULE SEQUENCE": "GQFSRSCGTVHNQSVYRRCL", "amyloid nucleation score": 1.5}
{"MACROMOLECULE SEQUENCE": "RYGVGLCAYMFFSCVDFRSG", "amyloid nucleation score": 1.65}
{"MACROMOLECULE SEQUENCE": "NWVVFRMRHRLQTSFWGCGE", "amyloid nucleation score": 0.123}

For every item in the list below, what is its measured amyloid nucleation score?
1. FLPGQNAIFKTLLVCSTVKV
2. CEVAQCHYLVVWFCAWAWRY
3. DSSHVRLWQYWIMWMLVVNA

A)
[-0.675, 0.939, 1.06]

###

assay: amyloid nucleation score (Sup35N fusion, yeast selection) (log enrichment); library NNK3; higher = more nucleation; inactive = no reads after selection
VALUE TYPE: amyloid nucleation score

{"SUBSTANCE": "VVFYTSGARDRICHMDVHRP", "amyloid nucleation score": 0.113}
{"SUBSTANCE": "SDRARRC", "amyloid nucleation score": 0.163}
{"SUBSTANCE": "MNRTFVIIVKNVASMIKDNR", "amyloid nucleation score": 2.1}
{"SUBSTANCE": "HRINWRIHTTYISTYWKKCM", "amyloid nucleation score": "inactive"}
{"SUBSTANCE": "LQSCKATPRLCFEATLGRGV", "amyloid nucleation score": -0.992}

For every item in the list below, what is its measured amyloid nucleation score?
1. GCFSSSESTIWGGAVDAKVS
2. TTVDDNFVHRRPM

A)
1: inactive; 2: inactive

For every item in the list below, what is its measured amyloid nucleation score?
1. LGSGEATE
2. PDDSRRNPRFG
3. DNSFSPLASGLYQLKGVELI
4. YACETVMSFVYMITFIRYLR
5. GLVVVT
6. ILDFDFTSLPNMMRGCRSHL
7. TCCSVLLIKVSSNEGD
8. SSGPIRLERMDYWHHWGATL

A)
1: inactive; 2: inactive; 3: inactive; 4: inactive; 5: inactive; 6: inactive; 7: 2.6; 8: inactive

For every item in the list below, what is its measured amyloid nucleation score?
1. RTRTCRYFLIVYSVVCLMSI
2. RLEGRLLCKWVCP
3. YGFMCLVCIGTCDCKRSWQG

A)
1. inactive
2. 1.96
3. 2.28

###

experiment: amyloid nucleation score (Sup35N fusion, yeast selection) (log enrichment); library NNK1; higher = more nucleation; inactive = no reads after selection
Label scheme, based on amyloid nucleation score: bucket A: < -0.3; bucket B: ≥ -0.3 and < 0.3; bucket C: ≥ 0.3

{"SUBSTANCE": "DSFQGRS", "ASSIGNED CATEGORY": "bucket B"}
{"SUBSTANCE": "ANTPRFMNTLV", "ASSIGNED CATEGORY": "bucket A"}
{"SUBSTANCE": "RSLNPVISFLN", "ASSIGNED CATEGORY": "bucket A"}
{"SUBSTANCE": "TTYRCNVKYQYFMFNDIEFF", "ASSIGNED CATEGORY": "bucket C"}
{"SUBSTANCE": "IYGAAFVAEGWTPTLSVGDK", "ASSIGNED CATEGORY": "bucket B"}

Next item in the queue.
Q) // bin(item) where item = `GRGQWQPAFTKLPYLILSVV`
A) bucket B

###

assay: amyloid nucleation score (Sup35N fusion, yeast selection) (log enrichment); library NNK3; higher = more nucleation; inactive = no reads after selection
VALUE TYPE: amyloid nucleation score

Sample records with amyloid nucleation score:
{"SUBSTANCE": "FMVDTHFGNAFCFYMYCC", "MEASURED": 2.26}
{"SUBSTANCE": "LFLFESQTCDSRVQNCISFG", "MEASURED": "inactive"}
{"SUBSTANCE": "NIGYSLWRHYTNSRG", "MEASURED": "inactive"}
{"SUBSTANCE": "ENSSLFFLRDCELWWNVRTR", "MEASURED": 1.59}
{"SUBSTANCE": "KFIWYIDDCWWCTTICSSGG", "MEASURED": "inactive"}

For every item in the list below, what is its measured amyloid nucleation score?
1. SLEIEK
2. YYLVDRWREFVGYRKKDCVA
3. LYFRLPNASAVDIIEIGFPV
4. PNYKNYLGGNRVVS
5. VLFSFAMLFKACLACFISCV
6. DGMSMCRQLLKGVQKPDYLL

A)
inactive
inactive
0.039
inactive
inactive
inactive

For every item in the list below, what is its measured amyloid nucleation score?
1. VSNHSIDIGRLRLGFTC
2. NWVVFFTYMAHHE
3. FETGCW
4. MRCGKSL

A)
1: inactive; 2: 0.166; 3: inactive; 4: inactive

For every item in the list below, what is its measured amyloid nucleation score?
1. GKGCYLVVCDYTTCTKFLNM
2. SMGTFNMVRLSGTWGMSAMY

A)
["inactive", 0.757]

###

test: amyloid nucleation score (Sup35N fusion, yeast selection) (log enrichment); library NNK3; higher = more nucleation; inactive = no reads after selection
VALUE TYPE: amyloid nucleation score

Sample records with amyloid nucleation score:
{"SUBSTANCE": "VIMGDINQVAQPGDLRRFRC", "amyloid nucleation score": -0.423}
{"SUBSTANCE": "DGHGRRHSRVQIRGIVACSD", "amyloid nucleation score": "inactive"}
{"SUBSTANCE": "SSTRIMNISVSRWSEMDKPD", "amyloid nucleation score": "inactive"}
{"SUBSTANCE": "VILMFDSCGGFDW", "amyloid nucleation score": "inactive"}
{"SUBSTANCE": "VLRAGELLF", "amyloid nucleation score": "inactive"}
{"SUBSTANCE": "AHFFVCCALSDRCRLRDVLQ", "amyloid nucleation score": "inactive"}
{"SUBSTANCE": "DIYFTSESSVYIVHWFLFRH", "amyloid nucleation score": "inactive"}
{"SUBSTANCE": "YYQGAQPLNPGAR", "amyloid nucleation score": "inactive"}
{"SUBSTANCE": "CTRCVFSIR", "amyloid nucleation score": -0.056}
{"SUBSTANCE": "SALEVFLWNKYLFVDVTLLL", "amyloid nucleation score": "inactive"}

For every item in the list below, what is its measured amyloid nucleation score?
1. HFQIIC
2. SLCLYNSFLSSL
3. CDVLYRILRYIYSGKLLFSE
4. GGLHSGVGKMAYELNMYS
5. YPLLEPSRVLVVCDGKGGVP

A)
1. inactive
2. inactive
3. inactive
4. inactive
5. inactive

For every item in the list below, what is its measured amyloid nucleation score?
1. VSSSSEVHCYSSFMYISKSP
2. IWWILIDP
3. LGWLLVTNWTSTYAGSLHDG

A)
1: 0.824; 2: inactive; 3: inactive

###

test: amyloid nucleation score (Sup35N fusion, yeast selection) (log enrichment); library NNK2; higher = more nucleation; inactive = no reads after selection
Give TRUE when the value for amyloid nucleation score is at least 0.2. Give FALSE when it is less.

{"SUBSTANCE": "RRRRSGLCRAYVNVLNARTR", "ASSIGNED CATEGORY": "TRUE"}
{"SUBSTANCE": "RMVMSE", "ASSIGNED CATEGORY": "FALSE"}

Q) hey, is amyloid nucleation score for this one >= 0.2? `FSGFVCWQADIFDDANIRLV`
A) FALSE

###

assay: amyloid nucleation score (Sup35N fusion, yeast selection) (log enrichment); library NNK1; higher = more nucleation; inactive = no reads after selection
Give criterion met when the value for amyloid nucleation score is at least 0.9. Give criterion not met when it is less.

{"MACROMOLECULE SEQUENCE": "KKMRGTFIRFIYRLFFLRYA", "ASSIGNED CATEGORY": "criterion not met"}
{"MACROMOLECULE SEQUENCE": "CECRRANVADPFRVSCWAKF", "ASSIGNED CATEGORY": "criterion not met"}
{"MACROMOLECULE SEQUENCE": "SLRFQSYRAWSMGWKLDDSC", "ASSIGNED CATEGORY": "criterion not met"}
{"MACROMOLECULE SEQUENCE": "VVSNVPVWTSGYYHHCCHRC", "ASSIGNED CATEGORY": "criterion not met"}
{"MACROMOLECULE SEQUENCE": "KVLWMSSHLYSATSCCVKRS", "ASSIGNED CATEGORY": "criterion met"}

Q) hey, is amyloid nucleation score for this one >= 0.9? `ALLPKFCDIKFVVEKNGENR`
A) criterion not met

Q) hey, is amyloid nucleation score for this one >= 0.9? `VFVVDIFLFVMNCPYDPLSR`
A) criterion met

Q) hey, is amyloid nucleation score for this one >= 0.9? `RVHQGLFDGNKAYQTGIHWN`
A) criterion not met

Q) hey, is amyloid nucleation score for this one >= 0.9? `LNHSAIRHTVSGLNPWSWAG`
A) criterion not met

Q) hey, is amyloid nucleation score for this one >= 0.9? `HMTLCRRGFISGQADYFVQ`
A) criterion not met

Q) hey, is amyloid nucleation score for this one >= 0.9? `VLYIGYYCQKSMEVLVTRSR`
A) criterion met

Q) hey, is amyloid nucleation score for this one >= 0.9? `RVFLTSLEDRVHTLGQATNT`
A) criterion met

Q) hey, is amyloid nucleation score for this one >= 0.9? `YLDRSRLMIKCHVHVKYVYY`
A) criterion met
